Consider the following binders; for each one, report its TL1A Binding Level (Early).
tested.on: T1, human TL1A extracellular domain with N-terminal HIS and FLAG tag (human, UniProt O95150 72-251)
T1 construct: the whole entry is named
T1 sequence: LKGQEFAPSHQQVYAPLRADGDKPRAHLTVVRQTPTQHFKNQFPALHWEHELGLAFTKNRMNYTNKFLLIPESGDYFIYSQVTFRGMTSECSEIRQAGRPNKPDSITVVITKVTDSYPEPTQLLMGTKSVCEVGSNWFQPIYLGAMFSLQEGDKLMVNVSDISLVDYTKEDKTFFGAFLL
method.description: SPR Run 5, Ab from supernatant captured on Protein A, TL1A 5 ug/mL, timepoint 44
Protocol: 1.5. Antibody expression and antigen binding as determined by SPR. Using a CM5 sensor chip (GE Healthcare) Protein A (Pierce) was coupled to the chip surface using an amine coupling kit (GE Healthcare). Protein A was coupled on flow cell 1 and 2 (or alternatively 3 and 4) using a BIACORE® T200. […] At the end of injection of the supernatant or purified antibody the change in response units was measured. […] The response units were measured prior to the end of the dissociation phase. […]
Give bare numbers, in RU.

320-429 (antibody, human IgG1, name in Kabat numbering, V domains shown, human IgG1, lambda) VH: QVQLVQSGAEVKKPGASVKVSCKASGYTFWSYDINWVRQAPGQGLEWMGWLNPNSGNTGYAQKFQGRVTMTADRSTSTAYMELSSLRSEDTAVYYCAREVPETAAFEYWGQGTLVTVSS VL: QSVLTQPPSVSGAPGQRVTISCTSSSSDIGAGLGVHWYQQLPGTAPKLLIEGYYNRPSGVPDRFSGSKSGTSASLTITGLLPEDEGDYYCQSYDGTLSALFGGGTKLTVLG :: 12

What the record says about 320-393 (antibody, human IgG1, name in Kabat numbering, V domains shown, human IgG1, lambda) VH: QVQLVQSGAEVKKPGASVKVSCKASKYTFTSYDINWVRQAPGQGLEWMGWLNPNSGNTGYAQKFQGRVTMTADRSTSTAYMELSSLRSEDTAVYYCAREVPETAAFEYWGQGTLVTVSS VL: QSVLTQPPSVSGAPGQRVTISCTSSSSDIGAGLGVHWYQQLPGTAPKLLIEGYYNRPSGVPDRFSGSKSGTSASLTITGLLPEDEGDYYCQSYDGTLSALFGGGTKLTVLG : TL1A Binding Level (Early) is 12
